The reported numbers originate from ChEMBL document CHEMBL5537160.

# system: Metabotropic glutamate receptor 1 (Rattus norvegicus)
# Sequence (P23385 whole entry): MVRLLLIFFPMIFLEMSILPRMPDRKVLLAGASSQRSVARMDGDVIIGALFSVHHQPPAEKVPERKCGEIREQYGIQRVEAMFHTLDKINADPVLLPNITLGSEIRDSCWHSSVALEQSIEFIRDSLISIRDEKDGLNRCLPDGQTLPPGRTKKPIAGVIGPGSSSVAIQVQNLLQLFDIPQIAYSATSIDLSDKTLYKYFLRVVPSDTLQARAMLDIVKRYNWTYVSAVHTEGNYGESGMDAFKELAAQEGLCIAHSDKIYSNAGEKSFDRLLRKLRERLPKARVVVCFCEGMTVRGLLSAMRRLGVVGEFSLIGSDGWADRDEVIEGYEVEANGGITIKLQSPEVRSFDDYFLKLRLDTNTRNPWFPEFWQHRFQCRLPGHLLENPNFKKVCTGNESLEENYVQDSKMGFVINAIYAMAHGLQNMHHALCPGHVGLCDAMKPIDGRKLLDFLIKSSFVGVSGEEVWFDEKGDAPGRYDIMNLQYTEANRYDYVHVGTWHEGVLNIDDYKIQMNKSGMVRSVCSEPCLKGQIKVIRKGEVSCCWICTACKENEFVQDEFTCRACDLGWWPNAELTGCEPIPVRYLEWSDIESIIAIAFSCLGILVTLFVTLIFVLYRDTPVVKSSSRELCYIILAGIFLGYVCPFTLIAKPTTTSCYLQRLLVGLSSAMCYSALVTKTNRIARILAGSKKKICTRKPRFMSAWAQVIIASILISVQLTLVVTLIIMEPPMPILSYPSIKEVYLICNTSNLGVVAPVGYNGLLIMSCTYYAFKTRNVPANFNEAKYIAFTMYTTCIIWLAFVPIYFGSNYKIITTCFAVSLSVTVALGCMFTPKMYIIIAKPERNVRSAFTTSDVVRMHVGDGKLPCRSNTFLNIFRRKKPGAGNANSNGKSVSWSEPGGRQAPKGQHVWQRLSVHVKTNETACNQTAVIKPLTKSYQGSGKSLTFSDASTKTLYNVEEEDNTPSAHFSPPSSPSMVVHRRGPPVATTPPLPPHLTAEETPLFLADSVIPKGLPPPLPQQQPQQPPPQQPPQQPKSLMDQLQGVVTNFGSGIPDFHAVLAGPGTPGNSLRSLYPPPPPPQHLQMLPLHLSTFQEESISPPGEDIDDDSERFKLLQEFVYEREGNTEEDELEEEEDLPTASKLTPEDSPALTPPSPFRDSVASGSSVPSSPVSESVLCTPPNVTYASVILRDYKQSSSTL
# procedureText: Agonist activity at rat mGlu1 transfected in HEK293 cells by IP-one HTRF assay
experimentalReadout: pEC50
One number for each entry, as −log10 of the molar value.

Specify measured pEC50 for "C[C@@]1(C(=O)O)C[C@H]1[C@H](N)C(=O)O" . 5.26

----------
# procedureText: Cmax in C57BL/6 mouse plasma at 100 mg/kg, po by LC-MS/MS analysis
# Assay type: ADME, organism-based
experimentalReadout: Cmax (ng/mL)
One number for each entry, in ng/mL.

Answer with the recorded Cmax for the compound listed here: "N[C@@]1(C(=O)O)CC[C@H]2[C@H](C(=O)O)[C@H]21" 2120

----------
# procedureText: Cmax in C57BL/6 mouse brain at 10 mg/kg, iv measured after 4 hrs by LC-MS/MS analysis
# Type: ADME, organism-based
experimentalReadout: Cmax (ng/g)
Give bare numbers, in ng/g.

Quickly give me recorded Cmax for "Cl.N[C@H](C(=O)O)[C@H]1[C@H](CC(=O)O)[C@@H]1C(=O)O" 68

----------
# system: Metabotropic glutamate receptor 5 (Rattus norvegicus, UniProt P31424)
# Sequence (P31424 whole entry): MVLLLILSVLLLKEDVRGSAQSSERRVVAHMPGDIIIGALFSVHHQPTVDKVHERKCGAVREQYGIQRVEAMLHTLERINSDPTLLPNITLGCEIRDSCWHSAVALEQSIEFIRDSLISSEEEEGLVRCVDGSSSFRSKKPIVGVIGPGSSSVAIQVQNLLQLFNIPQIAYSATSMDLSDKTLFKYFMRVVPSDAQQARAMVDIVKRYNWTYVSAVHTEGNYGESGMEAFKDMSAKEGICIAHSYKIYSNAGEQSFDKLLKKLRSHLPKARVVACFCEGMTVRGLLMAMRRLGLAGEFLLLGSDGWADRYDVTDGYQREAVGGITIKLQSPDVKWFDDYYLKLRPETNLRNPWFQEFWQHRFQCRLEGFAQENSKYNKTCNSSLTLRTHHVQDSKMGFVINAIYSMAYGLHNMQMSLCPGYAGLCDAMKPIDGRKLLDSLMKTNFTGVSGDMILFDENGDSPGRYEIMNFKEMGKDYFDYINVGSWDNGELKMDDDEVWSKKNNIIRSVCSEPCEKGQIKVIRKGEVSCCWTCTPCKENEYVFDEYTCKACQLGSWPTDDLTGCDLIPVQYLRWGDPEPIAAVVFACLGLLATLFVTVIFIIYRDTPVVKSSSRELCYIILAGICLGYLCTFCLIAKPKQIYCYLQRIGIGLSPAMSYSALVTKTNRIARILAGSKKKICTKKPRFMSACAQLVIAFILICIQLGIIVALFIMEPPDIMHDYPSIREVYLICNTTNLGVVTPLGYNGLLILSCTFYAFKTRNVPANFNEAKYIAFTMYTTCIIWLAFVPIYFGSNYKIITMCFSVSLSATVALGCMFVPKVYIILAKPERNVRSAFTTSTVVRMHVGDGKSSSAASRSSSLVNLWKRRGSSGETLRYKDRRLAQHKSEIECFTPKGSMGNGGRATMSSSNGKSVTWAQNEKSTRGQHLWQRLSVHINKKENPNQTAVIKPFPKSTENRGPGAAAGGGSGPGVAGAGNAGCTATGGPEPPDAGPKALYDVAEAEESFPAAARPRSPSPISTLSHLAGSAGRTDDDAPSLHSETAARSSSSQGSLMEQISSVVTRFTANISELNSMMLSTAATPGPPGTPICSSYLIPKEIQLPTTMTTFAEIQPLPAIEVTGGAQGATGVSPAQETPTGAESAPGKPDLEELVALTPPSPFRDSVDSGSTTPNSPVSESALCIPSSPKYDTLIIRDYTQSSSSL
# procedureText: Agonist activity at rat mGlu5 transfected in HEK293 cells by IP-one HTRF assay
# Assay type: functional, cell-based
# assayConditions: read-out: EC50
Kindly state EC50 for each of the entries shown.
Numbers only, in µM.

molecule="N[C@@H](Cn1oc(=O)[nH]c1=O)C(=O)O [QUISQUALATE]" experimentalreadout=EC50 value=0.027

Let's switch to this molecule now.
// output EC50; input "C[C@@]1(C(=O)O)C[C@H]1[C@H](N)C(=O)O" ; system Metabotropic glutamate receptor 5 (Rattus norvegicus, UniProt P31424) 12

----------
# procedureText: Half life in C57BL/6 mouse plasma at 100 mg/kg, po by LC-MS/MS analysis
# Type: ADME, organism-based
experimentalReadout: half-life (min)
One number for each entry, in min.

# return recorded half-life for entry "N[C@@]1(C(=O)O)CC[C@H]2[C@H](C(=O)O)[C@H]21" 408

----------
# system: Metabotropic glutamate receptor 3 (Rattus norvegicus, UniProt P31422)
# Sequence (P31422 whole entry): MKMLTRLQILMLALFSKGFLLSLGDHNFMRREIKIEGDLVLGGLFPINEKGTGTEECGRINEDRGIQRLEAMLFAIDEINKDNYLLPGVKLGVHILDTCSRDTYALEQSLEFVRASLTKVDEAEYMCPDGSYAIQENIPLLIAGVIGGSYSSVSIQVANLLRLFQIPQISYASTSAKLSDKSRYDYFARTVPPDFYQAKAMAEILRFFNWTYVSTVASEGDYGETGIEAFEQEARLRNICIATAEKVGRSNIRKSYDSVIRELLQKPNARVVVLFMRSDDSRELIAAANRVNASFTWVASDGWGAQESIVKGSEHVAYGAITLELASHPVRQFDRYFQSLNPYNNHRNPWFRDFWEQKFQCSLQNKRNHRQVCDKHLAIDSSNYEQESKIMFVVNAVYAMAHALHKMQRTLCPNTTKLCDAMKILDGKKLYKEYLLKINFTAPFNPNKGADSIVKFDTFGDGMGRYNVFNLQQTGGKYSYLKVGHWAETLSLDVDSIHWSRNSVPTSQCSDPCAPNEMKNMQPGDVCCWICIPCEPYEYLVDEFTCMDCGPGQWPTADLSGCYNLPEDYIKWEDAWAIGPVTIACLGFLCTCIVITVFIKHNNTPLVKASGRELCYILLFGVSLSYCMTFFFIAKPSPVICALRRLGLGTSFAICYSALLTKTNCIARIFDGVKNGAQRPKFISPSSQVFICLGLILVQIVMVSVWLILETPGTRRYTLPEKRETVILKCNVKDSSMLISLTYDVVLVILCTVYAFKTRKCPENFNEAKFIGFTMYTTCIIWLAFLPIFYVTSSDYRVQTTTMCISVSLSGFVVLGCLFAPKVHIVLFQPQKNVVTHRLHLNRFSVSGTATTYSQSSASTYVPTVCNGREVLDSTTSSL
# procedureText: Agonist activity at rat mGlu3 transfected in HEK293 cells co-transfected with chimeric Gqi9 incubated for 30 mins by IP-one HTRF assay
# Assay type: functional, cell-based
Provide the reported pEC50 of each item.
Answers are plain numbers, as −log10 of the molar value.

Here is how some compounds turned out for pEC50.
compound=Cl.N[C@H](C(=O)O)[C@H]1[C@H](CC(=O)O)[C@@H]1C(=O)O value=6.43
compound="N[C@@]1(C(=O)O)CO[C@H]2[C@H](C(=O)O)[C@H]21 [LY-379268]" value=8.00

// next entry
GET pEC50 where system = Metabotropic glutamate receptor 3 (Rattus norvegicus, UniProt P31422) and item = "C[C@@]1(C(=O)O)C[C@H]1[C@H](N)C(=O)O" 5.73

----------
# system: Metabotropic glutamate receptor 2 (Rattus norvegicus, UniProt P31421)
# Sequence (P31421 whole entry): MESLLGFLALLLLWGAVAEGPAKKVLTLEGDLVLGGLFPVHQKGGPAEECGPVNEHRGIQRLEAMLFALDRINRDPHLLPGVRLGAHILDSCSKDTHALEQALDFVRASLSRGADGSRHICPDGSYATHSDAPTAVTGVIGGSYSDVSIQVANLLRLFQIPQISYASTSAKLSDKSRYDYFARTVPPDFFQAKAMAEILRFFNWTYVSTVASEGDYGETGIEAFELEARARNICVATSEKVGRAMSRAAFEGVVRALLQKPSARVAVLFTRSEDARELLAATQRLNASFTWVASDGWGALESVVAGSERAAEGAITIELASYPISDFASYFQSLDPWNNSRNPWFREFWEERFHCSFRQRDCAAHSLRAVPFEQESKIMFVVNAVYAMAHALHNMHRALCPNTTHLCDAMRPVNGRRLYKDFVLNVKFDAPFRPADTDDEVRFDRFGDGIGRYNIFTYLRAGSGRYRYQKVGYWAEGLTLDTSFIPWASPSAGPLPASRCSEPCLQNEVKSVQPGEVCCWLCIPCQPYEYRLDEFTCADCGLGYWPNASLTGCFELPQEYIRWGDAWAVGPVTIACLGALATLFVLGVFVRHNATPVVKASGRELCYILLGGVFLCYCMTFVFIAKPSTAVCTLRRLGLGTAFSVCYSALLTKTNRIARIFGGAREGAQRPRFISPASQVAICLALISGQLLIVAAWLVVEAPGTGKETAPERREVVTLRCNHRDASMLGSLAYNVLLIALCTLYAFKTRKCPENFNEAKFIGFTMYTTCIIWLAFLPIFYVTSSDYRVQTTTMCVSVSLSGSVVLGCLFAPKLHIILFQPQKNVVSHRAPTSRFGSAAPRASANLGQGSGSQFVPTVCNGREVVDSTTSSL
# procedureText: Agonist activity at SNAP tagged rat mGlu2 transfected HEK293 cells by TR-FRET assay
# Format: functional, cell-based
# assayConditions: read-out: EC50
Can you tell me EC50 for the items I'm about to list?
Numbers only, in nM.

samplesmiles=COc1cccc(C(=O)N[C@H]2C[C@@](N)(C(=O)O)[C@@H]3[C@@H](C(=O)O)[C@@H]32)c1 outputunit=nM value=2820

As a next step, examine the compound that follows.
Identify EC50 associated with the compound "Cl.N[C@H](C(=O)O)[C@H]1[C@H](CC(=O)O)[C@@H]1C(=O)O" 13
